- testedTarget: Replicase polyprotein 1ab (Severe acute respiratory syndrome coronavirus 2)
- assayNotes: Inhibition of SARS-CoV-2 3CLPro using DabcylKNSTLQSGLRK-Edans as substrate at 5 uM preincubated for 30 mins followed by substrate addition measured after 20 mins by FRET assay relative to control
- assaySetup: time 50.0 min
Attribute: inhibition
// note: answer is a bare numeric in %

Examples with answers:
{"columns": ["sampleSmiles", "unitsSymbol", "observedMeasurement"],
 "data": [
  ["O=C(/C=C/c1c(Cl)c(O)c(O)c(O)c1Cl)c1c(Cl)c(O)c(O)c(O)c1Cl", "%", 0],
  ["O=C(O)/C=C/c1c(Cl)c(O)c(O)c(O)c1Cl", "%", 3.1],
  ["O=C(/C=C/c1c(Cl)c(O)c(O)c(O)c1Cl)c1ccccc1F", "%", 2.3],
  ["O=C(/C=C/c1c(Cl)c(O)c(O)c(O)c1Cl)c1c(Cl)cc(F)cc1Cl", "%", 1.3],
  ["O=C(/C=C/c1c(Cl)c(O)c(O)c(O)c1Cl)c1ccco1", "%", -1.1]
]}

Continue with the compound presented below.
Field request: inhibition | item: O=C(/C=C/c1cc(O)c(O)c(O)c1)c1ccc(F)cc1 2.5

----------
- testedTarget: Replicase polyprotein 1ab (Severe acute respiratory syndrome coronavirus 2) (UniProt P0DTD1)
- assayNotes: Inhibition of SARS-CoV-2 3CLPro using DabcylKNSTLQSGLRK-Edans as substrate at 5 uM preincubated for 30 mins followed by substrate addition measured after 20 mins by FRET assay relative to control
- assaySetup: time 50.0 min
valueKind: inhibition (%)
// note: answer is a bare numeric in %

Examples with answers:
{"columns": ["sampleSmiles", "inhibition (%)"],
 "data": [
  ["O=C(/C=C/c1c(Cl)c(O)c(O)c(O)c1Cl)c1ccc(Cl)c(Cl)c1", -0.8],
  ["O=C(/C=C/c1c(Cl)c(O)c(O)c(O)c1Cl)c1ccc(C(F)(F)F)cc1", 2]
]}

Field request: inhibition | item: O=C(O)[C@H](O)Cc1ccc(O)c(O)c1 5.3

----------
Attribute: viability at 24 h, 1 µM
- assayNotes: Cytotoxicity against mouse RAW264.7 cells assessed as cell viability at 1 uM incubated for 24 hrs by CCK8 assay relative to control
- Assay type: toxicity, cell-based
- assaySetup: read-out: Activity
// note: answer is a bare numeric in %

Examples with answers:
{"columns": ["sampleSmiles", "valueKind", "observedMeasurement"],
 "data": [
  ["O=C(O)/C=C/c1c(Cl)c(O)c(O)c(O)c1Cl", "viability at 24 h, 1 µM", 93.8],
  ["O=C(/C=C/c1c(Cl)c(O)c(O)c(O)c1Cl)c1ccc(Br)cc1", "viability at 24 h, 1 µM", 101],
  ["O=C(/C=C/c1c(Cl)c(O)c(O)c(O)c1Cl)c1ccc(F)cc1", "viability at 24 h, 1 µM", 93.7]
]}

Field request: viability at 24 h, 1 µM | item: O=C(/C=C/c1c(Cl)c(O)c(O)c(O)c1Cl)c1ccc(C(F)(F)F)cc1 76.7

Field request: viability at 24 h, 1 µM | item: O=C(CCc1cc(O)c(O)c(O)c1)c1ccc(F)cc1 117

Field request: viability at 24 h, 1 µM | item: O=C(/C=C/c1c(Cl)c(O)c(O)c(O)c1Cl)c1ccc(F)cc1F 108

Field request: viability at 24 h, 1 µM | item: O=C(/C=C/c1c(Cl)c(O)c(O)c(O)c1Cl)c1ccc(F)cc1Cl 118
